Tested on: Fibroblast
method.description: Incucyte cell viability with human fibroblast; further: unitless GR value; below 1 slowed growth and below 0 cell loss
Type: toxicity, cell-based
stated.conditions: 24 h, 10 µM, compound concentration 10 uM, replicate number 2, timepoint 24 hours
Assign labels as follows, please: Met for Growth Rate below 0.4; Not met for Growth Rate equal to or exceeding 0.4.

Example cases with answers are listed next.
compound | measured.target | assigned.label
CN(c1ncccc1CNc1ccnc(-c2cc3cc(Cl)ccc3[nH]2)n1)S(C)(=O)=O | Fibroblast | Met
Cc1nnc2n1-c1sc(CCC(=O)N3CCOCC3)cc1C(c1ccccc1Cl)=NC2 | Fibroblast | Not met
O=C(O)c1cccc(/C=C2/C[C@@H]3[C@@H](/C=C/[C@H](O)C4CCCCC4)[C@H](O)C[C@@H]3O2)c1 | Fibroblast | Not met
COc1cc(Nc2ncc3c(n2)-c2ccc(Cl)cc2C(c2c(F)cccc2OC)=NC3)ccc1C(=O)O | Fibroblast | Met
O=C(O)c1n[nH]c2c1C[C@H]1C[C@@H]21 | Fibroblast | Not met

Query: Consider the compound COc1cc(/C=C/C(=O)NCCn2c(C)cc3ccccc32)cc(OC)c1OC . Is its Growth Rate strictly less than 0.4?
Reply: Not met

Query: Consider the compound CNC(=O)[C@H]1O[C@@H](n2cnc3c(NCc4cccc(I)c4)ncnc32)[C@H](O)[C@@H]1O . Is its Growth Rate strictly less than 0.4?
Reply: Not met

Query: Consider the compound O=S(=O)(c1ccccc1)N(CC(F)(F)F)c1ccc(C(O)(C(F)(F)F)C(F)(F)F)cc1 . Is its Growth Rate strictly less than 0.4?
Reply: Met

Query: Consider the compound O=C1NCc2ccc3c(-c4cccc(Cl)c4)c[nH]c3c21 . Is its Growth Rate strictly less than 0.4?
Reply: Met

Query: Consider the compound CC(C)c1c(NC(=O)Nc2ccc(Cl)cc2)c(=O)n(-c2ccccc2)n1C . Is its Growth Rate strictly less than 0.4?
Reply: Not met

Query: Consider the compound Cc1cc(CN)cc(C)c1-c1ncn(C)c1-c1ccnc2cc(F)ccc12 . Is its Growth Rate strictly less than 0.4?
Reply: Not met

Query: Consider the compound COc1ccc(-n2c(C)c([N+](=O)[O-])c3ccc(O)cc32)cc1 . Is its Growth Rate strictly less than 0.4?
Reply: Not met

* * *

Test system: Fibroblast
method.description: Incucyte cell viability with human fibroblast; further: unitless GR value; below 1 slowed growth and below 0 cell loss
Format: toxicity, cell-based
stated.conditions: 6 h, 10 µM, compound concentration 10 uM, replicate number 1, timepoint 6 hours
endpoint: Growth Rate
Please state the value as a number alone, without comment.

Example entries begin here.
compound | measured.target | endpoint | assay.value
CCn1c(-c2nc3cc(C(=O)N4CCCC(N)C4)ccc3n2C)cc2ccccc21.Cl (stereo not drawn) | Fibroblast | Growth Rate | -0.75
CCC(=O)N1CC[C@H](Nc2ncnc3c2CN(c2cnc(OC)c(C(F)(F)F)c2)CC3)C1 | Fibroblast | Growth Rate | -0.68
O=C(NCCN1CCC(n2c(=O)[nH]c3cc(Cl)ccc32)CC1)c1ccc(F)cc1 [HALOPEMIDE] | Fibroblast | Growth Rate | -0.01
Br.Br.c1ncc(CC2CCNCC2)[nH]1 | Fibroblast | Growth Rate | 0.88
O=C1[C@H](Cc2ccc(O)cc2)N2C(=O)CCN(C(=O)NCc3ccccc3)[C@H]2CN1Cc1cccc2ccccc12 | Fibroblast | Growth Rate | -0.77
C[C@@](Cc1c[nH]c2ccccc12)(NC(=O)Nc1ccc([N+](=O)[O-])cc1)C(=O)NCC1(c2ccccn2)CCCCC1 | Fibroblast | Growth Rate | -0.69

Tested on Fibroblast: C[C@@H]1CN(Cc2ccc(F)cc2)CCN1C(=O)COc1ccc(Cl)cc1NC(N)=O [BX 471 FREE BASE] . Observed Growth Rate: -0.16

Tested on Fibroblast: COc1ccc(S(=O)(=O)N2C(=O)[C@@](c3ccccc3OC)(N3C[C@H](O)C[C@H]3C(=O)N(C)C)c3cc(Cl)ccc32)c(OC)c1 . Observed Growth Rate: 0.08

* * *

Test system: U2OS
method.description: Incucyte cell viability with U2OS; further: unitless GR value; below 1 slowed growth and below 0 cell loss
Format: toxicity, cell-based
stated.conditions: human, 0 h, 10 µM, compound concentration 10 uM, replicate number 1, timepoint 0 hours
Class key for Growth Rate values: low (below -0.3), medium (-0.3 to below 0.3), high (0.3 or more)

Example cases with answers are listed next.
compound | assigned.label
Cc1ccc(Cn2nc(C(=O)N[C@@H]3C(C)(C)[C@@H]4CC[C@@]3(C)C4)cc2-c2ccc(Cl)c(C)c2)cc1 | low
O=c1ccc2ccc(OCCCCN3CCN(c4cccc5sccc45)CC3)cc2[nH]1 | high
Cc1ccccc1N1CCN(CCc2nnc3n2CCCC3)CC1.Cl [DAPIPRAZOLE HYDROCHLORIDE] | high
CN[C@@H]1CCc2[nH]c3ccc(C(N)=O)cc3c2C1.O.O=C(O)CCC(=O)O [FROVATRIPTAN SUCCINATE] | low
C[C@@H]1C[C@H]2[C@@H]3CCC4=CC(=O)C=C[C@]4(C)[C@@]3(F)[C@@H](O)C[C@]2(C)[C@@]1(O)C(=O)CO | medium
Cc1ccc(OCC(O)C(C)NC(C)C)c2c1CCC2.Cl (centres undefined) | medium
Cc1cc(CN)cc(C)c1-c1ncn(C)c1-c1ccnc2cc(F)ccc12 | medium
Cl.NCCc1c[nH]c2ccc(O)cc12 [SEROTONIN HYDROCHLORIDE] | medium

Then this compound:
Query: Category of Cc1cc(C)cc([C@H]2c3cc(C)ccc3NC(=O)CN2C(=O)c2ccc(Br)s2)c1 :
Reply: low

* * *

System: Fibroblast
method.description: Incucyte cell viability with human fibroblast; further: unitless GR value; below 1 slowed growth and below 0 cell loss
Format: toxicity, cell-based
stated.conditions: 12 h, 10 µM, compound concentration 10 uM, replicate number 1, timepoint 12 hours
endpoint: Growth Rate
Please state the value as a number alone, without comment.

structure.notation | Growth Rate
COc1cc(C(=O)N2CC[C@@H](O)[C@@H](N)C2)cc2nc(-c3cc4ccccc4n3CC3CC3)n(C)c12.Cl | -0.8
S=C(NCCCc1c[nH]cn1)NCCCN(Cc1ccc(Cl)c(Cl)c1)c1ccc(Br)cn1 | 0.17
CC(C)c1cc(-c2ccc(F)c3ccccc23)nc(N)n1 | 0.58
CCN1/C(=C/C(C)=O)Sc2ccc(OC(C)=O)cc21 | 0.14
Cc1ccc(Cn2nc(C(=O)N[C@@H]3C(C)(C)[C@@H]4CC[C@@]3(C)C4)cc2-c2ccc(Cl)c(C)c2)cc1 | 0.76
O=C(O)CCC/C=C\C[C@H]1C(=O)C[C@@H](O)[C@@H]1/C=C/[C@@H](O)CCc1ccccc1 | 0.4
CN1CCC(C(=O)c2cccc(NC(=O)c3c(F)cc(F)cc3F)n2)CC1 | 0.6
Cc1nccc(COC(=O)N2C[C@@H]3[C@@H](CNC(=O)c4ccc5[nH]nnc5c4)[C@@H]3C2)n1 | 0.1
Brc1c(N=C2NCCN2)ccc2nccnc12.O=C(O)C(O)C(O)C(=O)O | 0.82
O=C1COc2nccc(-c3ccccc3F)c2CN1Cc1cc(C(F)(F)F)cc(C(F)(F)F)c1 | 0.8

In plain terms, CCc1ccccc1C(=O)Nc1n[nH]c2c(C)c(F)c(C3C(C#N)=C(C)N(C)C(C)=C3C#N)cc12 has a documented Growth Rate of 0.64

In plain terms, CC(C)(C)c1ccc(CSc2cnn(C(C)(C)C)c(=O)c2Cl)cc1 has a documented Growth Rate of -0.26

In plain terms, CNCCN1CCC(c2cc(CN(C)C(=O)c3cccc(Oc4ccccc4)c3)ccn2)CC1 has a documented Growth Rate of 0.83

In plain terms, O=C1NC(Nc2ccccc2)=N/C1=C\c1ccc2c(c1)OCO2 has a documented Growth Rate of 0.74

In plain terms, COc1ccc2[nH]c(I)c(CCNC(C)=O)c2c1 has a documented Growth Rate of 0.97

In plain terms, CCC(=O)NCC[C@@H]1CCc2ccc3c(c21)CCO3 has a documented Growth Rate of 0.96

In plain terms, O=C(NCCO)c1cccc(-c2cc(Nc3ccc(OC(F)(F)F)cc3)ncn2)c1 has a documented Growth Rate of -0.72

In plain terms, CCc1nn2c(C)cc(C)nc2c1Cc1ccc(-c2nnc(C3CCNCC3)o2)cc1 has a documented Growth Rate of -0.55

In plain terms, COc1cccc2c1c(NS(=O)(=O)c1ccc(Cl)s1)nn2Cc1cccc(CNC(=O)C(C)(C)O)c1 has a documented Growth Rate of 0.41

* * *

Tested on: HEK-293T
method.description: Incucyte cell viability with HEK293T; further: unitless GR value; below 1 slowed growth and below 0 cell loss
Assay type: toxicity, cell-based
stated.conditions: human, 18 h, 10 µM, compound concentration 10 uM, replicate number 1, timepoint 18 hours
endpoint: Growth Rate

compound | assay.value
CCN(Cc1ccncc1)C(=O)C(CO)c1ccccc1 (centres undefined) [TROPICAMIDE] | 0.93
CN(C)C(=O)N1CC[C@H](NC2=Nc3cc(F)ccc3N(CC(F)F)c3ccc(Cl)cc32)C1 | 0.89
CCN1C(=CC(C)=O)Sc2ccc(OC)cc21 | 0.69
CCCCCC(O)/C=C/[C@H]1C(=O)CC(O)C1C/C=C\CCCC(=O)O (some centres undefined) | 0.69
C[C@@H]1CC(=O)Nc2cccc(-c3ccc4c(c3)c(-c3cnn(C)c3)nn4C)c2N1 | 0.41

In plain terms, CCc1ccccc1C(=O)Nc1n[nH]c2c(C)c(F)c(C3C(C#N)=C(C)N(C)C(C)=C3C#N)cc12 has a documented Growth Rate of 0.5

In plain terms, Cc1ccc(OCC(O)C(C)NC(C)C)c2c1CCC2.Cl (centres undefined) has a documented Growth Rate of 0.16

In plain terms, CC1(C)SSC(C)(C)[C@@H](NC(=O)[C@@H](N)Cc2ccc(O)cc2)C(=O)NCC(=O)N[C@@H](Cc2ccccc2)C(=O)N[C@H]1C(=O)O.O=C(O)C(F)(F)F has a documented Growth Rate of 0.85

In plain terms, Cc1noc(C)c1-c1cnc2c(-c3ccc(C(=O)O)cc3)cn([C@@H](C)c3ccccn3)c2c1 has a documented Growth Rate of 0.88
